experiment: Plasma pharmacokinetics of oral SNDX-275 in patients with advanced and refractory solid tumors or lymphoma (Example 2); assay type: in vivo; details: human, plasma, oral, 12 mg/m2, 12 mg/m^2, q14-day, first dose, fed, 4 patients; read-out: Tmax Median
measure: Tmax (min)

compound="Nc1ccccc1NC(=O)c1ccc(CNC(=O)OCc2cccnc2)cc1 [SNDX-275]" resultvalue=30
